Where do these numbers come from? They come from patent US6869956B2.

assay: Pharmacokinetics in mice; type: in vivo; settings: mouse, plasma, iv; BALB/c mice; apparent terminal elimination phase after i.v. dose
quantity: half-life (h)
Give the number; h is assumed, so skip it.

Recorded half-life (compound Cc1ccc2nc(NCCN)c3ncc(C)n3c2c1 [Compound 6] ): 7.9

* * *

target: recombinantly expressed IKK-1 (Homo sapiens, UniProt O15111); experiment: IKK-1 enzyme assay (33P-ATP / IκB-α phosphorylation); conditions: 33P-labeled ATP and IκB-α as substrates
Sequence (O15111 whole entry): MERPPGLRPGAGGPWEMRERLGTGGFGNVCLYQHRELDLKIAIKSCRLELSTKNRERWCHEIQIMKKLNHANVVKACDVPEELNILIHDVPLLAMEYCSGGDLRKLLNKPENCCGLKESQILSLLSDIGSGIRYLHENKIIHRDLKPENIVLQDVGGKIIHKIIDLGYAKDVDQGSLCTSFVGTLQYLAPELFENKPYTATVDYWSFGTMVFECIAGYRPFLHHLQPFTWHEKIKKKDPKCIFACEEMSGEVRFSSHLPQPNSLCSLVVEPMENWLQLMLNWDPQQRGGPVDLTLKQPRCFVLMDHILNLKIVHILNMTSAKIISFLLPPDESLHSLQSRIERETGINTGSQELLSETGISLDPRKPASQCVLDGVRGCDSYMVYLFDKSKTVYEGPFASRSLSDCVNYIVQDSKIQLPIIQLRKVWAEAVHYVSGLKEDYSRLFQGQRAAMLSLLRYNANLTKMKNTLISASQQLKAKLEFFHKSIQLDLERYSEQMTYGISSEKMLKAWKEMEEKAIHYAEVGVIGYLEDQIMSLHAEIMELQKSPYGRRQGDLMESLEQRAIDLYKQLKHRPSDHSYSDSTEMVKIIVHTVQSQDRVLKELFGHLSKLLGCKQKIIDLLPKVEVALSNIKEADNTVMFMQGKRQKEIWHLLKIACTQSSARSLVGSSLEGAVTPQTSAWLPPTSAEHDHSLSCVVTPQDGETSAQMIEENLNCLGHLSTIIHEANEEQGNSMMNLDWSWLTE
pIC50: −log10 of the molar value. Where a name gives a salt, the structure may show the parent alone.
Binary classification by pIC50, with 6 as an inclusive lower bound for Met; all other cases are Not met.

Some solved entries appear below for comparison.
{"columns": ["compound", "class_assignment"],
 "data": [
  ["CNCCNc1nc2cc3ccccc3cc2n2c(C)cnc12 [Example 13, Hydrochloride]", "Met"],
  ["Cc1cnc2c(NCCN3CCCCC3)nc3cc4ccccc4cc3n12", "Not met"]
]}

Pending compound:
# input pIC50 >= 6 for "CNc1nc2cc3ccccc3cc2n2c(C)cnc12" ?
# output Met
